B1: GA-binding protein alpha chain, residues 172 to 250; numbered along this chain, Q06546 (parent)
chain: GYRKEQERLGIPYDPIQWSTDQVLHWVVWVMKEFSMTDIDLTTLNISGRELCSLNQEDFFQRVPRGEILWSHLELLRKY

Variants of: B1
Assay: abundance fitness (aPCA) (normalised: wild type 0, dead -1); higher = more abundant; growth selection in yeast, the domain comes from the species named
Conditions: Homo sapiens
A collection of variants and their measured abundance fitness
propertyMeasured: abundance fitness

[[record]]
mutationcode = "H72W"
assayvalue = -1.02

[[record]]
mutationcode = "C52S"
assayvalue = -0.335

[[record]]
mutationcode = "L41W"
assayvalue = -0.132

[[record]]
mutationcode = "G10V"
assayvalue = -0.383

[[record]]
mutationcode = "L76I"
assayvalue = -0.236

[[record]]
mutationcode = "N45Y"
assayvalue = -0.191

[[record]]
mutationcode = "P64C"
assayvalue = -0.288

[[record]]
mutationcode = "S19W"
assayvalue = -0.927

[[record]]
mutationcode = "H72M"
assayvalue = -0.322

[[record]]
mutationcode = "E5Y"
assayvalue = -0.149

[[record]]
mutationcode = "S19M"
assayvalue = -0.836

[[record]]
mutationcode = "V28C"
assayvalue = 0.039

[[record]]
mutationcode = "N55P"
assayvalue = -0.039

[[record]]
mutationcode = "R3V"
assayvalue = -0.262

[[record]]
mutationcode = "E74A"
assayvalue = -0.061

[[record]]
mutationcode = "E57L"
assayvalue = -0.076

[[record]]
mutationcode = "Q22M"
assayvalue = -0.219

[[record]]
mutationcode = "R3E"
assayvalue = -0.004

[[record]]
mutationcode = "W18I"
assayvalue = -0.915

[[record]]
mutationcode = "Y79G"
assayvalue = 0.031

[[record]]
mutationcode = "L75S"
assayvalue = 0.046

[[record]]
mutationcode = "L51F"
assayvalue = -0.815

[[record]]
mutationcode = "D14N"
assayvalue = -0.072

[[record]]
mutationcode = "S71K"
assayvalue = -0.102

[[record]]
mutationcode = "G48N"
assayvalue = -0.578

[[record]]
mutationcode = "N45D"
assayvalue = -0.148

[[record]]
mutationcode = "D21K"
assayvalue = -0.029

[[record]]
mutationcode = "R62M"
assayvalue = 0.07

[[record]]
mutationcode = "I16Y"
assayvalue = 0.037

[[record]]
mutationcode = "N45S"
assayvalue = -0.019

[[record]]
mutationcode = "Y79D"
assayvalue = 0.06

[[record]]
mutationcode = "Q6C"
assayvalue = -0.118

[[record]]
mutationcode = "M36D"
assayvalue = -0.019

[[record]]
mutationcode = "L41P"
assayvalue = -0.028

[[record]]
mutationcode = "P64T"
assayvalue = -0.333

[[record]]
mutationcode = "E5H"
assayvalue = -0.354

[[record]]
mutationcode = "R49F"
assayvalue = -0.113

[[record]]
mutationcode = "R65P"
assayvalue = -0.455

[[record]]
mutationcode = "R49P"
assayvalue = 0.001

[[record]]
mutationcode = "L69I"
assayvalue = -0.499

[[record]]
mutationcode = "V63P"
assayvalue = -0.667

[[record]]
mutationcode = "S71C"
assayvalue = -0.167

[[record]]
mutationcode = "L75M"
assayvalue = -0.042

[[record]]
mutationcode = "D21V"
assayvalue = -0.172

[[record]]
mutationcode = "F34W"
assayvalue = -0.092

[[record]]
mutationcode = "M36E"
assayvalue = -0.031

